- target entity: Complement factor D (Homo sapiens)
- method notes: Displacement of Cy5 from recombinant human biotin labeled factor D expressed in Escherichia coli after 2 hrs by TR-FRET assay
pIC50: −log10 of the molar value.
reported metric: pIC50

INSERT INTO measurements (chem_smiles, target_entity, numeric_result) VALUES
  ('Cn1cc(-c2cc(COc3ccccc3CC(=O)O)cc(-c3cccc(CC(N)=O)c3F)c2)cn1', 'Complement factor D (Homo sapiens)', 7.64);

* * *

- method notes: Half life in Wistar rat at 10 mg/kg, po or 1 mg/kg, iv
- Format: ADME, organism-based
- condition summary: in vivo
reported metric: half-life

INSERT INTO results (compound, result) VALUES
  ('COc1ccc2c(c1)C(C(=O)N(Cc1ccc(N(C)C)cc1)c1ccc(C(C)C)cc1)CCC2 (stereo not drawn)', '1 to 3 h'),
  ('CCc1cccc(CC)c1-c1cc(OC(C)C)c2c(n1)CCCC2Nc1ccccc1CCO (stereo not drawn)', '1 to 3 h'),
  ('CC(=O)N[C@@H](Cc1ccccc1)C(=O)N[C@H]1CCCNC(=O)[C@H](CCCNC(=N)N)NC(=O)[C@H](Cc2c[nH]c3ccccc23)NC(=O)[C@@H](CC2CCCCC2)NC(=O)[C@@H]2CCCN2C1=O', '20 h');

* * *

- target entity: C3a anaphylatoxin chemotactic receptor (Homo sapiens)
- method notes: Antagonist activity at human C3aR expressed in RBL-2H3 cells assessed as inhibition of C3a-induced intracellular calcium mobilization
- Format: functional, cell-based
reported metric: IC50

INSERT INTO measurements (chem_smiles, reported_metric, result) VALUES
  ('N=C(N)NCCC[C@H](NC(=O)COCC(c1ccccc1)c1ccccc1)C(=O)O', 'IC50', '0.028 µM');

* * *

- method notes: Inhibition of factor D in […]-activated cat serum assessed as decrease in human erythrocyte lysis
- condition summary: Felis catus
reported metric: IC50 (nM)

INSERT INTO measurements (chem_smiles, numeric_result) VALUES
  ('CC(=O)Oc1ccc(Cc2ccc(OC(C)=O)c(C(=O)O)c2)cc1C(=O)O', 100),
  ('CC(=O)Oc1ccc(-c2ccc(OC(C)=O)c(C(=O)O)c2)cc1C(=O)O', 100);

* * *

- method notes: Inhibition of bovine trypsin esterolytic activity using Na-benzoyl-L-Arg-nitroanalide as substrate
- Design: species or system Bos taurus
pIC50: −log10 of the molar value.
reported metric: pIC50

INSERT INTO measurements (chem_smiles, reported_metric, numeric_result) VALUES
  ('N=C(N)c1cc2ccc(OC(=O)c3cccs3)cc2s1', 'pIC50', 6.49);

* * *

- target entity: Complement C1r subcomponent (Homo sapiens, UniProt P00736)
- Sequence (P00736 whole entry): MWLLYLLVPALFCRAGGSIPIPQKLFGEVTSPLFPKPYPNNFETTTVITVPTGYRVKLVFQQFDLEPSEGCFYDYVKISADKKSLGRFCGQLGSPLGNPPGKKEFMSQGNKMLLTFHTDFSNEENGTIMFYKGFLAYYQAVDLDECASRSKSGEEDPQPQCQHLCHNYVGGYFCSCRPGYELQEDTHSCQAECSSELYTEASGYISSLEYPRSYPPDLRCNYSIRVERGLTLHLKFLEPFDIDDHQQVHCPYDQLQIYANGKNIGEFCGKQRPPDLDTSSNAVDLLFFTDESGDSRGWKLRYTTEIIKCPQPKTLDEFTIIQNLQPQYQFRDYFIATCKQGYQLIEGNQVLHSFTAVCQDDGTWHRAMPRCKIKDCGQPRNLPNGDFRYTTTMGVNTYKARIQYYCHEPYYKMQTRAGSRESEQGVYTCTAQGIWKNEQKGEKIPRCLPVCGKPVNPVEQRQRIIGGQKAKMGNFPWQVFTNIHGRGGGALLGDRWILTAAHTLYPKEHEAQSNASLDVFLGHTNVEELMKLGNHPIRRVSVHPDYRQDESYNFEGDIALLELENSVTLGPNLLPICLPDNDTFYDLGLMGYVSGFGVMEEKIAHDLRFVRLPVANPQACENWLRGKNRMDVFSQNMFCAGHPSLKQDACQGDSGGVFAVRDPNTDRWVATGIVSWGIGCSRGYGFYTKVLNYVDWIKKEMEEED
- method notes: Inhibition of human plasma C1r using Cbz-Gly-Arg-S-Bzl as substrate preincubated for 10 mins followed by substrate addition and measured after 30 mins by DTNB reagent-based two-beam microtiter plate photometer
reported metric: IC50 (nM)

INSERT INTO measurements (compound, measurement_units, numeric_result) VALUES
  ('CC(C)[C@@H](NC(=O)Cc1c(Cl)cccc1Cl)C(=O)N1CC=CC1C(=O)NCc1ccc(C(=N)N)s1 (stereo partly specified)', 'nM', 600);
